assay: sensitizers of A549 cells to miR-34 induction, primary screen, imaging, A549 dox-inducible miR-34, nuclei and caspase counts (AID 1347080); settings: A549 miR-34 inducible, Hoechst nuclei count, 48 h; active compounds read low; cell number ratio, induced over uninduced
Bridge positions count the residues as written; N and C are the ends. Square brackets hold non-standard residues; d marks the D form. Peptide text beside a SMILES is read from it. * marks the point of attachment. Octanoyl(6-Me) = CCC(C)CCCCC(=O)*; Dab = NCC[CH](N)C(=O)O
Collected fold change values appear next to each entry.
PROPERTY_MEASURED: fold change

compound="CCC(C)CCCCC(=O)NC(CCN)C(=O)NC(C(=O)NC(CCN)C(=O)NC1CCNC(=O)C(C(C)O)NC(=O)C(CCN)NC(=O)C(CCN)NC(=O)C(CC(C)C)NC(=O)C(Cc2ccccc2)NC(=O)C(CCN)NC1=O)C(C)O (centres undefined) ({Octanoyl(6-Me)}-[Dab]T[Dab][Dab][Dab]FL[Dab][Dab]T; lactam 4-C; configuration not given here)" result_value=0.886
compound="CCOc1ccc(NC(=O)CC(C)O)cc1 (centres undefined)" result_value=0.956
compound=NCCCS(=O)(=O)O result_value=0.922
compound="C#CC1(O)CC[C@H]2[C@@H]3CCC4=CCCC[C@@H]4[C@H]3CC[C@@]21C (some centres undefined)" result_value=0.949
compound=O=c1ccc2cc(O)c(O)cc2o1 result_value=0.832
compound=OCC(CO)N[C@H]1C[C@](O)(CO)[C@@H](O)[C@H](O)[C@H]1O result_value=0.876
compound=CC(=O)N[C@@H](CCC(N)=O)C(=O)O result_value=0.922
compound=COc1nccnc1NS(=O)(=O)c1ccc(N)cc1 result_value=0.87
compound=Cc1cc2c(cc1S(N)(=O)=O)S(=O)(=O)CCC2 result_value=0.932

###

target: Mitogen-activated protein kinase 7 (Homo sapiens) (UniProt Q13164); experiment: ERK5 transactivation activators in reporter cells, primary screen, cell-based, HTS (AID 1508626); details: HeLa Gal4-ERK5 transactivation, 18 h, at 5 µM;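 also: luciferase driven by Gal4-ERK5 fusion binding five Gal4 sites before minimal TATA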
Sequence (Q13164 whole entry, looked up, the tested form may be a part): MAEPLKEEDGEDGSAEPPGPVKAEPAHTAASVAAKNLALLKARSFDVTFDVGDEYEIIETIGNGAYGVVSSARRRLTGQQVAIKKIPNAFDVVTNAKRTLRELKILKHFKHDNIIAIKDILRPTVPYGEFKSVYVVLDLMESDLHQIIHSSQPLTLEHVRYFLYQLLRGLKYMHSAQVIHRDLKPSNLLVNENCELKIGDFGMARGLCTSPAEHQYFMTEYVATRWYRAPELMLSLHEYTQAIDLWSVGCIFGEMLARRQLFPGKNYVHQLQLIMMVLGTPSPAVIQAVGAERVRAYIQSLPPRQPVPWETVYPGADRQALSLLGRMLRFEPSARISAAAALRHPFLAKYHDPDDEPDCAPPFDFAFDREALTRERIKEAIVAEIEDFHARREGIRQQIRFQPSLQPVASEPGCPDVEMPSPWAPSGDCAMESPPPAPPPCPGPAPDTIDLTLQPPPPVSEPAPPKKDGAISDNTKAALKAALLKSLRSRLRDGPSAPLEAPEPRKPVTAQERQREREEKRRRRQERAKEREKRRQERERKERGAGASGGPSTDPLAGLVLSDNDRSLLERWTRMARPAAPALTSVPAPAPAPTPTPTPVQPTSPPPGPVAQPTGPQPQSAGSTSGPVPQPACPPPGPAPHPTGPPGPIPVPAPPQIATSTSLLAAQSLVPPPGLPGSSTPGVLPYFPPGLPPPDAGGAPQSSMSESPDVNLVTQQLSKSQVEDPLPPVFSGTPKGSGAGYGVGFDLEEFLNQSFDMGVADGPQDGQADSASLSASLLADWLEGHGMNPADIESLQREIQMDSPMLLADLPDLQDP
Active and inactive are the calls of the source.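 The calls were made as follows: active = luciferase signal above three times the same-plate solvent-only control wells; inactive = the rest.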
Possible outcomes: class 1 for active, class 0 for inactive

molecule=COc1ccc(-c2coc3c(O)c(OC)ccc3c2=O)cc1 category_label="class 0"
molecule=C=C1[C@H]2CC[C@@]3(C)[C@H](c4ccoc4)OC(=O)C[C@]13O[C@H]1C[C@H](O)C(C)(C)[C@H](CC(=O)OC)[C@]12C category_label="class 0"
molecule=COc1cc(/C=C/C(=O)O)ccc1O category_label="class 0"
molecule=O=C1c2ccc(O)c(O)c2C(=O)c2c(O)ccc(O)c21 category_label="class 0"
molecule="COc1ccc2c(c1)OCC(Cc1ccc(OC)c(OC(C)=O)c1)C2=O (centres undefined)" category_label="class 0"
molecule="CC(CN(C)C)CN1c2ccccc2Sc2ccccc21 (centres undefined)" category_label="class 0"
molecule=CC(=O)N[C@@H]1[C@@H](O)[C@H](O)[C@@H](CO)O[C@H]1O category_label="class 0"
molecule=O=C1c2ccccc2C(=O)c2c(O)c(O)cc(O)c21 category_label="class 0"
molecule=NC(=O)C(c1ccccc1)(c1ccccc1)[C@@H]1CCN(CCc2ccc3c(c2)CCO3)C1 category_label="class 0"
molecule="C[N+]1(C)[C@@H]2CC[C@H]1CC(OC(=O)C(O)c1ccccc1)C2 (some centres undefined)" category_label="class 0"
molecule="C=C1CCC2C(CC2(C)C)C(=O)CCC1O (centres undefined)" category_label="class 0"
molecule=COc1ccc2cc([C@H](C)CO)ccc2c1 category_label="class 0"
molecule=N[C@@H](Cc1c[nH]c2ccccc12)C(=O)O category_label="class 0"
molecule="CC(=O)OC1CCC23CC1(C)CCC2C(C)(C)CC3OC(C)=O (centres undefined)" category_label="class 0"
molecule=CNCCc1ccccn1 category_label="class 0"
molecule=CCCCC(=O)Oc1ccccc1C(=O)O category_label="class 0"
molecule="O=C(NCC1CCCCN1)c1cc(OCC(F)(F)F)ccc1OCC(F)(F)F (centres undefined)" category_label="class 0"
molecule=COc1c2ccccc2nc2occc12 category_label="class 0"
molecule="CN1[C@@H]2CC(OC(=O)[C@H](CO)c3ccccc3)C[C@H]1[C@@H]1O[C@@H]12 (some centres undefined)" category_label="class 0"
molecule=CCOc1ccc(C(=O)c2ccc(OC)c(O)c2O)cc1 category_label="class 0"
molecule=O=C(CCCN1CCC(O)(c2ccc(Br)cc2)CC1)c1ccc(F)cc1 category_label="class 0"
molecule=CCCCCCCCCCCCCCCCCCCCCCO category_label="class 0"
molecule=CC(C)Cn1c(=O)n(C)c(=O)c2[nH]cnc21 category_label="class 1"
molecule=COc1cc2ccc(=O)oc2c(OC)c1OC category_label="class 0"

Measured values drawn from PubChem BioAssay for this set.
